These data points were gathered from patent US20140187559A1.

# testTarget: wild type FGFR-4 (Homo sapiens, UniProt P22455)
# Sequence (P22455 22-802): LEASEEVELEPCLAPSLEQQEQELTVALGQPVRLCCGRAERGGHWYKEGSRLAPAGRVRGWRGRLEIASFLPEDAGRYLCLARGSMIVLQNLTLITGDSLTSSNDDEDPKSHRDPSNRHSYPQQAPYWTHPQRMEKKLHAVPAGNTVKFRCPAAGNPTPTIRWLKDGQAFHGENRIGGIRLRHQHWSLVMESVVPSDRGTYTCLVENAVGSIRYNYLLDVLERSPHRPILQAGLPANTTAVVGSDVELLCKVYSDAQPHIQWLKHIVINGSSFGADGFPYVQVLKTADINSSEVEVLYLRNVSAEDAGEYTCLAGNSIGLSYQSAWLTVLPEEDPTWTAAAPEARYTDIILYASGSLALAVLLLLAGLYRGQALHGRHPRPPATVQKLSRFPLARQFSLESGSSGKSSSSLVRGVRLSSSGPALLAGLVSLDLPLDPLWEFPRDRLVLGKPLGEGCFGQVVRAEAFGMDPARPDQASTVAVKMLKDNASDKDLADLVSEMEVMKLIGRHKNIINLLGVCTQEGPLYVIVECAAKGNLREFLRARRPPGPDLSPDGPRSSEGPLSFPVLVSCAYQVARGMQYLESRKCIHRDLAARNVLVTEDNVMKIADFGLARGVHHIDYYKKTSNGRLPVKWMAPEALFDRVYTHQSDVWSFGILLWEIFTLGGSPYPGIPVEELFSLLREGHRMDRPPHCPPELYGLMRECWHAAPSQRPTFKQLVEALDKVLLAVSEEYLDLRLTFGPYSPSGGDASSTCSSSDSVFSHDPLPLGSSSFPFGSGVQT
endpointLabel: IC50

Sample records with IC50:
compound	endpointLabel	assayValue
C=CC(=O)Nc1cccc(C)c1Nc1ncc(C#Cc2cc(OC)cc(OC)c2)cn1	IC50	100 to 1000 nM
C=CC(=O)Nc1cc(C(=O)NC2CCN(C)CC2)ccc1Nc1ncc(C)c(N2CCN(C(=O)Nc3ccc(C#N)cc3)CC2)n1	IC50	10 to 100 nM

Field IC50 (entry C=CC(=O)Nc1ccccc1-c1ccn2c(-c3cc(NC(=O)NCC(F)(F)F)cc(OC(C)C)c3)cnc2c1 ) reads 100 to 1000 nM

Field IC50 (entry C=CC(=O)Nc1cccc(C)c1Nc1ncc2cc(-c3c(Cl)cccc3Cl)ccc2n1 ) reads 10 to 100 nM

Field IC50 (entry C=CC(=O)Nc1cccc(C)c1Nc1ncc2cc(-c3c(Cl)ccc(OC)c3F)ccc2n1 [COMPOUND 17A] ) reads 10 to 100 nM

Field IC50 (entry C=CC(=O)Nc1ccccc1-c1ccn2c(-c3cccc(NC(=O)NCC(F)(F)F)c3)cnc2c1 ) reads 100 to 1000 nM

Field IC50 (entry C=CC(=O)Nc1ccccc1Nc1ncc2cc(-c3c(Cl)c(OC)cc(OC)c3Cl)c(=O)n(C)c2c1C ) reads 100 to 1000 nM
